Each entry below carries its reported inhibition at 0.05 µM.
# system.tested: PfPFT (Plasmodium falciparum, UniProt Q8I503+Q8IHP6)
# Sequence (Q8I503 1-521): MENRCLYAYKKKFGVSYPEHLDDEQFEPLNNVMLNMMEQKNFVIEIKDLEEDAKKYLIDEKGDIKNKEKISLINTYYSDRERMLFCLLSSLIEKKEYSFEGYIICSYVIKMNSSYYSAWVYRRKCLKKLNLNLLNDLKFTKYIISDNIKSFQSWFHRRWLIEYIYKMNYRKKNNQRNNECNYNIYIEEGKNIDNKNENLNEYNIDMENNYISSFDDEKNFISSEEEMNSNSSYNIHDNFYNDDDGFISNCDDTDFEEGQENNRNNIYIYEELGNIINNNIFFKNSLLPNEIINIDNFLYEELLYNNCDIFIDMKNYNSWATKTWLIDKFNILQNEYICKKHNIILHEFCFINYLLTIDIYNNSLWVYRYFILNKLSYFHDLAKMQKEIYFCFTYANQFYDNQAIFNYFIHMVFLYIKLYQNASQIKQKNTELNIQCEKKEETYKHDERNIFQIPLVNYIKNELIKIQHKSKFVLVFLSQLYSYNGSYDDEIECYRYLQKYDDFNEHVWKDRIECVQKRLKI
# Sequence (Q8IHP6 1-923): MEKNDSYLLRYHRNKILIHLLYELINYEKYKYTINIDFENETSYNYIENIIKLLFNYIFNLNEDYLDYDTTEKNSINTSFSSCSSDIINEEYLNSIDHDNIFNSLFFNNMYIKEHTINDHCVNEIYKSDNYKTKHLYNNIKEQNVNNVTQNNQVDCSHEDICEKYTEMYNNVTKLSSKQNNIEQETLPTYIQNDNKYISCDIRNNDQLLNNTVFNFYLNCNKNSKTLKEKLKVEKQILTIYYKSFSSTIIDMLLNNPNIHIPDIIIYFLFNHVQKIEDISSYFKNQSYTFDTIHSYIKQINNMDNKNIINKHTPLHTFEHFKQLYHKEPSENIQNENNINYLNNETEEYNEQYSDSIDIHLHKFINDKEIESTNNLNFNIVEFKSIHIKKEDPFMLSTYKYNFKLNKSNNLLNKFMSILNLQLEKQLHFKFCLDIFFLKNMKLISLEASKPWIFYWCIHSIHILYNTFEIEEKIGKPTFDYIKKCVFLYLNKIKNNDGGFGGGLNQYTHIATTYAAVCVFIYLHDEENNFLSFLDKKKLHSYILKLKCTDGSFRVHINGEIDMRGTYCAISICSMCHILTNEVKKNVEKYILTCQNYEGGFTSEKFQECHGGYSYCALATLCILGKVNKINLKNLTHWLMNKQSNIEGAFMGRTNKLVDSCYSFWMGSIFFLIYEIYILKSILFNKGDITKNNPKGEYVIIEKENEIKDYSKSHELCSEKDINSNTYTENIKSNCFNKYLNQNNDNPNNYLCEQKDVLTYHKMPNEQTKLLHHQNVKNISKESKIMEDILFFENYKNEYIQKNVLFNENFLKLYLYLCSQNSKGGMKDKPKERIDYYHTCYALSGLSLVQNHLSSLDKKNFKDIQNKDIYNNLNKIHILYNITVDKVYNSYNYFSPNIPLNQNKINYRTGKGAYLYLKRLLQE
# experiment.notes: PfPFT inhibition, scintillation proximity assay with partially purified PfPFT
# Format: biochemical
# cond: read-out: % Inhibition of PfPFT at 50 nM, inhibitor at 50 nM
// units = %; emit number, no label

Worked cases, answers included:
CC(C)C(=O)N(CCN(Cc1cncn1C)c1ccc(C#N)cc1)Cc1ccccc1 [Compound 8k]    61
Cn1cnc(S(=O)(=O)N(CCN(Cc2cncn2C)c2ccc(C#N)cc2)CC2CCNCC2)c1 [Compound 8s]    5
Cn1cncc1CN(CCN(Cc1ccccc1)S(=O)(=O)c1ccccn1)c1ccc(C#N)cc1 [Compound 8g]    95
Cn1cnc(S(=O)(=O)N(CCN(Cc2cncn2C)c2ccc(C#N)cc2)Cc2ccc(-n3cccc3)cc2)c1 [Compound 8ai]    85
C=CCN(CCN(Cc1cncn1C)c1ccc(C#N)cc1)S(=O)(=O)c1cn(C)cn1 [Compound 8l]    42

Enquiry: GET /values?readout=inhibition at 0.05 µM&item= C=C(Br)CN(CCN(Cc1cncn1C)c1ccc(C#N)cc1)S(=O)(=O)c1cn(C)cn1 [Compound 8n]
Return: 80

Enquiry: GET /values?readout=inhibition at 0.05 µM&item= Cn1cnc(S(=O)(=O)N(CCN(Cc2cncn2C)c2ccc(C#N)cc2)CC(=O)NC(C)(C)C)c1 [Compound 8o]
Return: 6

Enquiry: GET /values?readout=inhibition at 0.05 µM&item= Cn1cnc(S(=O)(=O)N(CCN(Cc2cncn2C)c2ccc(C#N)cc2)Cc2ccccc2)c1 [Compound 8d]
Return: 98

Enquiry: GET /values?readout=inhibition at 0.05 µM&item= CN(C)c1cccc2c(S(=O)(=O)N(CCN(Cc3cncn3C)c3ccc(C#N)cc3)Cc3ccccc3)cccc12 [Compound 8i]
Return: 29

Enquiry: GET /values?readout=inhibition at 0.05 µM&item= Cn1cnc(S(=O)(=O)N(CCN(Cc2cncn2C)c2ccc(C#N)cc2)CC2CCCCC2)c1 [Compound 8q]
Return: 93
